- target_of_assay: ABL1 (64-515) (Homo sapiens (Human), UniProt P00519)
- Sequence (P00519 64-515): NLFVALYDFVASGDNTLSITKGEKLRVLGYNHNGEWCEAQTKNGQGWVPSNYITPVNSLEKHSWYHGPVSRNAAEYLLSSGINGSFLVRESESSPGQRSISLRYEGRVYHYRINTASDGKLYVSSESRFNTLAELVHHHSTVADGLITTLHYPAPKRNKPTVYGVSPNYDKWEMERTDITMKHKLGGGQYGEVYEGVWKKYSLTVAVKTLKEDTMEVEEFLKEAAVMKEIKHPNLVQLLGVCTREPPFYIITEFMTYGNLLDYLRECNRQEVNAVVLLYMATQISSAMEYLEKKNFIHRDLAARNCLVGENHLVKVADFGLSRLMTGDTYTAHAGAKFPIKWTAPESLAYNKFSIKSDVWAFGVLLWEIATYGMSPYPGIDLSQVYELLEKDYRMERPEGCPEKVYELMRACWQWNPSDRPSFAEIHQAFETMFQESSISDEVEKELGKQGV
- experimental_protocol: Radio ABL1 (64-515) assay (radiometric filter-binding)
- Format: biochemical
recorded_metric: pIC50
When answering, recall that pIC50 equals minus log10 of the concentration in mol/L, and write that number alone.

>  <compound_smiles>
COc1ccc(-c2cc(C(=O)Nc3ccc(OC(F)(F)F)cc3)cnc2N2CC[C@@H](O)C2)cn1

>  <target_of_assay>
ABL1 (64-515) (Homo sapiens (Human), UniProt P00519)

>  <pIC50>
8.40

$$$$
>  <compound_smiles>
O=C(Nc1ccc(SC(F)F)cc1)c1cnc(N2CC[C@@H](O)C2)c(-c2cncnc2)c1

>  <target_of_assay>
ABL1 (64-515) (Homo sapiens (Human), UniProt P00519)

>  <pIC50>
7.96

$$$$
>  <compound_smiles>
O=C(Nc1ccc(OC(F)(F)F)cc1)c1cnc(N2CC[C@@H](O)C2)c(-c2cncc(C(F)(F)F)c2)c1

>  <target_of_assay>
ABL1 (64-515) (Homo sapiens (Human), UniProt P00519)

>  <pIC50>
7.72

$$$$

If you can, please state the reported pIC50 value of CC(F)(F)Oc1ccc(NC(=O)c2cnc(N3CC[C@@H](O)C3)c(-c3cncc(C#N)c3)c2)cc1 .
8.52

For CN(CCO)c1ncc(C(=O)Nc2ccc(OC(F)(F)Cl)cc2)cc1-c1cncc(F)c1 then?
9.00

----------
- target_of_assay: ABL1 (64-515) (Homo sapiens (Human), UniProt P00519)
- experimental_protocol: Radio ABL1 (64-515) assay (radiometric filter-binding)
- Format: biochemical
pIC50: −log10 of the molar value.
Parameter: pIC50. Scope: all listed entries.

Worked examples follow.
>  <compound_smiles>
Cc1ncc(-c2cc(C(=O)Nc3ccc(OC(F)(F)F)cc3)ccc2N2CC[C@@H](O)C2)cn1

>  <target_of_assay>
ABL1 (64-515) (Homo sapiens (Human), UniProt P00519)

>  <pIC50>
> 8.52

$$$$
>  <compound_smiles>
O=C(Nc1ccc(OC(F)(F)F)cc1)c1cnc(N2CCC(O)CC2)c(-c2cncnc2)c1

>  <target_of_assay>
ABL1 (64-515) (Homo sapiens (Human), UniProt P00519)

>  <pIC50>
> 8.52

$$$$
>  <compound_smiles>
O=C(Nc1ccc(OC(F)(F)F)cc1)c1cnc(NCCO)c(-c2cccnc2)c1

>  <target_of_assay>
ABL1 (64-515) (Homo sapiens (Human), UniProt P00519)

>  <pIC50>
> 8.52

$$$$

Next compound, pIC50 to be filled in.
If you can, please state the reported pIC50 value of O=C(Nc1ccc(OC(F)(F)F)cc1)c1cnc(N2CC[C@@H](CO)C2)c(-c2cccnc2)c1 .
> 8.52

----------
- target_of_assay: ABL1 (64-515) (Homo sapiens (Human))
- experimental_protocol: Caliper ABL1 (64-515) assay (microfluidic mobility shift)
- Assay type: biochemical
Assign labels as follows, please: 1.0 for IC50 below 2 nM; 0.0 for IC50 equal to or exceeding 2 nM.

>  <compound>
CC(C)(O)C1CCN(c2ncc(C(=O)Nc3ccc(OC(F)(F)F)cc3)cc2-c2cncnc2)C1 (stereo not drawn)

>  <assigned_class>
1.0

$$$$
>  <compound>
Cc1ccc(-c2cc(C(=O)Nc3ccc(OC(F)(F)F)cc3)cnc2N2CC(CO)C2)cn1

>  <assigned_class>
1.0

$$$$
>  <compound>
O=C(Nc1ccc(OC(F)(F)F)cc1)c1cnc(N2CC[C@H](CO)C2)c(-c2cnc(Cl)c(F)c2)c1

>  <assigned_class>
1.0

$$$$
>  <compound>
N#Cc1cncc(-c2cc(C(=O)Nc3ccc(OC(F)(F)F)cc3)cnc2N2CC[C@@H](O)C2)c1

>  <assigned_class>
1.0

$$$$

Now for another entry.
Just wondering, is IC50 of O=C(Nc1ccc(OC(F)(F)C(F)(F)F)cc1)c1cnc(N2CC[C@@H](O)C2)c(-c2cncnc2)c1 below 2 nM?
0.0

----------
- target_of_assay: ABL1 (64-515) (Homo sapiens (Human))
- experimental_protocol: Caliper ABL1 (64-515) assay (microfluidic mobility shift)
- Type: biochemical
recorded_metric: IC50
Record the result as number plus unit.

>  <compound>
N#Cc1ccncc1-c1cc(C(=O)Nc2ccc(OC(F)(F)F)cc2)cnc1N1CC[C@@H](O)C1 [Example 240]

>  <target_of_assay>
ABL1 (64-515) (Homo sapiens (Human))

>  <IC50>
1.4 nM

$$$$
>  <compound>
CC1(O)CN(c2ncc(C(=O)Nc3ccc(OC(F)(F)F)cc3)cc2-c2cccnc2)C1 [Example 130]

>  <target_of_assay>
ABL1 (64-515) (Homo sapiens (Human))

>  <IC50>
1.2 nM

$$$$
>  <compound>
O=C(Nc1ccc(SC(F)(F)F)cc1)c1cnc(N2CC[C@H](CO)C2)c(-c2cncnc2)c1 [Example 189]

>  <target_of_assay>
ABL1 (64-515) (Homo sapiens (Human))

>  <IC50>
1 nM

$$$$
>  <compound>
O=C(Nc1ccc(OC(F)(F)F)cc1)c1cnc(N2CC[C@@H](O)C2)c(-c2ccc(F)nc2)c1 [Example 47]

>  <target_of_assay>
ABL1 (64-515) (Homo sapiens (Human))

>  <IC50>
1.2 nM

$$$$

If you can, please state the reported IC50 value of CCN(CCO)c1ncc(C(=O)Nc2ccc(OC(F)(F)Cl)cc2)cc1-c1cncc(C#N)c1 [Example 184] .
0.8 nM

For O=C(Nc1ccc(OC(F)(F)Cl)cc1)c1cnc(N2CC[C@@H](O)C2)c(-c2cc(F)nc(F)c2)c1 [Example 273] then?
1.2 nM

For Cc1ccc(F)cc1-c1cc(C(=O)Nc2ccc(OC(F)(F)Cl)cc2)cnc1N1C[C@H](O)[C@@H](O)C1 [Example 296] then?
1 nM

For CCN(CCO)c1ncc(C(=O)Nc2ccc(SC(F)(F)F)cc2)cc1-c1cncc(F)c1 [Example 196] then?
0.7 nM

For O=C(Nc1ccc(OC(F)(F)F)cc1)c1cnc(N2C[C@H](CO)[C@@H](O)C2)c(-c2cncc(F)c2)c1 (relative stereo) [Example 92] then?
0.7 nM

For N#Cc1cncc(-c2cc(C(=O)Nc3ccc(OC(F)(F)F)cc3)cnc2N2CC[C@H](CO)C2)c1 [Example 90] then?
0.7 nM

For N#Cc1ccc(F)c(-c2cc(C(=O)Nc3ccc(OC(F)(F)Cl)cc3)cnc2N2CC[C@@H](O)C2)c1 [Example 295] then?
0.7 nM

----------
- target_of_assay: ABL1 (64-515) (Homo sapiens (Human))
- experimental_protocol: Radio ABL1 (64-515) assay (radiometric filter-binding)
- Assay type: biochemical
pIC50: −log10 of the molar value.
recorded_metric: pIC50

If you can, please state the reported pIC50 value of O=C(Nc1ccc(OC(F)(F)F)cc1)c1cnc(N2CCC(O)C2)c(-c2ccc(C(F)(F)F)nc2)c1 (stereo not shown) .
> 8.52

For N[C@H]1CCN(c2ncc(C(=O)Nc3ccc(OC(F)(F)F)cc3)cc2-c2cccnc2)C1 then?
> 8.52

For Cc1ccc(-c2cc(C(=O)Nc3ccc(OC(F)(F)F)cc3)cnc2NCCO)cn1 then?
> 8.52

For O=C(Nc1ccc(OC(F)(F)F)cc1)c1cnc(N2CC(O)C2)c(-c2cncnc2)c1 then?
> 8.52

For Cc1ccc(-c2cc(C(=O)Nc3ccc(OC(F)(F)F)cc3)cnc2N2CC[C@H](CO)C2)cn1 then?
> 8.52

For O=C(Nc1ccc(OC(F)(F)F)cc1)c1cnc(N2CC[C@@H](O)C2)c(-c2cccc(F)c2)c1 then?
8.40

For Cc1ccc(-c2cc(C(=O)Nc3ccc(OC(F)(F)F)cc3)cnc2N2CC[C@H](CN)C2)cn1 then?
> 8.52

----------
- target_of_assay: ABL1 (64-515) (Homo sapiens (Human))
- experimental_protocol: Radio ABL1 (64-515) assay (radiometric filter-binding)
- Assay type: biochemical
recorded_metric: IC50

Worked examples follow.
>  <molecule>
CC1(O)CN(c2ncc(C(=O)Nc3ccc(OC(F)(F)F)cc3)cc2-c2cnc(Cl)c(F)c2)C1 [Example 134]

>  <IC50>
10 nM

$$$$
>  <molecule>
O=C(Nc1ccc(OC(F)(F)F)cc1)c1cnc(N2CC[C@@H](O)C2)c(-c2cncc(Cl)c2)c1 [Example 50]

>  <IC50>
3 nM

$$$$
>  <molecule>
COc1ncc(-c2cc(C(=O)Nc3ccc(OC(F)(F)F)cc3)cnc2N2CCC(O)C2)cn1 (stereo not drawn) [Example 28]

>  <IC50>
< 3 nM

$$$$
>  <molecule>
O=C(Nc1ccc(OC(F)(F)F)cc1)c1ccc(N2C[C@H](O)[C@@H](O)C2)c(-c2cccnc2)c1 [Example 8]

>  <IC50>
13 nM

$$$$
>  <molecule>
CC(=O)NC1CCCN(c2ncc(C(=O)Nc3ccc(OC(F)(F)F)cc3)cc2-c2cncnc2)C1 (stereo not drawn) [Example 20]

>  <IC50>
< 3 nM

$$$$

If you can, please state the reported IC50 value of CN[C@H]1CCN(c2ncc(C(=O)Nc3ccc(OC(F)(F)F)cc3)cc2-c2cncnc2)C1 [Example 102] .
< 3 nM

For Cc1ccc(-c2cc(C(=O)Nc3ccc(OC(F)(F)F)cc3)cnc2N2CC[C@@H](O)C2)cn1 [Example 41] then?
< 3 nM

For O=C(Nc1ccc(OC(F)(F)F)cc1)c1cnc(N2CCC3(COC3)C2)c(-c2cncnc2)c1 [Example 116] then?
< 3 nM

For O=C(Nc1ccc(OC(F)(F)Cl)cc1)c1cnc(N2CC[C@@H](O)C2)c(-c2cccnc2F)c1 [Example 172] then?
< 3 nM
